Biological target: T1, Monkey CD96-3xFlag (cyno-CD96-3xFLAG) (cynomolgus monkey)
T1 construct: Signal peptide marked only by lost underlining; also called cynomolgus CD96
T1 chain: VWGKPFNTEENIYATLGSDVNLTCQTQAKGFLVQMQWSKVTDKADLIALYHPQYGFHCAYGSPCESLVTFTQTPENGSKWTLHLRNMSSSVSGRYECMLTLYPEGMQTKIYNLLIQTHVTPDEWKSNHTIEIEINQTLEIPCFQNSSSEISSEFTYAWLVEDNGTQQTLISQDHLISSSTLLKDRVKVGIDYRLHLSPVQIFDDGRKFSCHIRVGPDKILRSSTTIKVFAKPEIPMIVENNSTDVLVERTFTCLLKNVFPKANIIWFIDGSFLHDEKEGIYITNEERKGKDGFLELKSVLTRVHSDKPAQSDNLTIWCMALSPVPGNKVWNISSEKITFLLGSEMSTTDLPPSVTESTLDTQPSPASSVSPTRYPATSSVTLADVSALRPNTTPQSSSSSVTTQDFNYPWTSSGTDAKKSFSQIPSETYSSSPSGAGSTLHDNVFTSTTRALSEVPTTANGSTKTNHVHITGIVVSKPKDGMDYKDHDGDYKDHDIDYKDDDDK
Test: ELISA, cyno-CD96-3xFLAG coated
Below, each entry is listed alongside its reported pEC50.
Note on units: pEC50 is unitless, being -log10 of a concentration expressed in mol/L.

{"BINDER": "ch1718 (antibody, human IgG4 S228P, kappa, V domains shown, also called chimeric antibody corresponding to m1718) VH: EFQLQQSGPELVKPGASVKISCKASAYSITDYNMNWVKQSNGKSLEWIGVINPSYGITDYNQNFKDKATLTVDQSSSTAYMQLNSLTSEDSAVYYCAIQLRLPGYFDVWGTGTTVIVSS VL: DIKMTQSPSSMYASLGERVTITCKASQDINNYLNWFQQKPGKSPKTLIYRANRLVDGVPSRFSGSGSGQDYSLTISSLEYEDMGIYYCLKYDEFPYTFGGGTKVEIKR", "pEC50": 10.17}

Query: Entry h1718-012 (antibody, V domains shown, Only variable regions are tied to this name) VH: EVQLVQSGAEVKKPGASVKVSCKASGYTITDYNMNWVRQAPGQRLEWIGVINPSYGITDYNQNFKDRVTITVDTSASTAYMELSSLRSEDTAVYYCAIQLRLPGYFDVWGQGTTVTVSS VL: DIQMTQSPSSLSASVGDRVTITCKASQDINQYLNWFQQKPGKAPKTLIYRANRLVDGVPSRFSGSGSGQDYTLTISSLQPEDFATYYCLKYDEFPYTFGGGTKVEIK needs its pEC50 filled in; supply it.
Reply: 10.12

Query: Hello, please tell me recorded pEC50 for this one: ch1720 (antibody, human IgG4 S228P, kappa, V domains shown, also called chimeric antibody corresponding to m1720) VH: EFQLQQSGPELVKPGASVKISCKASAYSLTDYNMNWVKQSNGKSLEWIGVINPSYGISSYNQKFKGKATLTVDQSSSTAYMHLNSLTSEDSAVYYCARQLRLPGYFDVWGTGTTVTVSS VL: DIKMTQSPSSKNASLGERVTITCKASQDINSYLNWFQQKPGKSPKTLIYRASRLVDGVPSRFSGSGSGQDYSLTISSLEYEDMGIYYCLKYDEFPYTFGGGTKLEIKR
Reply: 10.02
